assay: Cytotoxicity assay (cell viability, crystal violet staining); assay type: cell-based, Bos taurus; conditions: cattle (Bos taurus), MDBK cells (bovine kidney, ATCC CCL-22); MDBK cells, 3 days at 37°C; mean and SD of at least two independent experiments
MEASURE NAME: CC50 at 3 days

O=C(Nc1ccc(OC(F)(F)F)cc1)c1ccco1 [Compound 16] : 49.8 µM

Entry O=C(NNC(=O)c1cc2cc(OC(F)(F)F)ccc2[nH]1)c1cccc(C(F)(F)F)c1 [Compound 6] , CC50 at 3 days reported as 7.2 µM

So, c1ccc(CN2CCN(c3cccc4[nH]cnc34)CC2)cc1 [Compound 1] ? Its CC50 at 3 days was > 50 µM

For this compound ( COc1ccccc1NC(=O)Cc1nnc(SCC(=O)Nc2cc(Cl)ccc2C)n1C [Compound 10] ), measured CC50 at 3 days is > 50 µM

* * *

assay: Cytotoxicity assay (cell viability, crystal violet staining); format: cell-based, Bos taurus; conditions: cattle (Bos taurus); MDBK cells, 3 days at 37°C; mean and SD of at least two independent experiments
MEASURE NAME: CC50 at 3 days

NNC(=O)c1ccccc1NC(=O)c1ccccc1 [Compound 3] : > 50 µM

Then there is this compound:
Measured CC50 at 3 days of O=C(NCc1ccc2c(c1)OCO2)Oc1ccccc1 [Compound 7] : > 50 µM

* * *

test: Cytotoxicity assay (cell viability, crystal violet staining); type: cell-based, Bos taurus; conditions: cattle (Bos taurus), MDBK cells (bovine kidney, ATCC CCL-22); MDBK cells, 3 days at 37°C; mean and SD of at least two independent experiments
Documented CC50 at 3 days across a set of compounds

Previously resolved entries follow.
CCOC(=O)c1ccc2nc(NC(=O)c3cccc(Cl)c3)sc2c1 : > 50 µM
Cc1cccc(Cl)c1NC(=N)NC(=N)N : > 50 µM
N=C(N)Nc1nc2ccccc2[nH]1 : > 50 µM
CS/C(=N\S(=O)(=O)c1ccc(-n2nc(C(F)(F)F)cc2-c2cccs2)cc1)N1CCCC1 : > 50 µM

// CC50 at 3 days value for O=C(OCCO)c1cccc2c1-c1ccccc1C2=O : 61.5 µM

// data source = paper PMC5879447
